Where do the numbers come from? From ChEMBL document CHEMBL1145905.

Would you kindly list Ki for each of these compounds?
Molecular target: Mu-type opioid receptor (Homo sapiens, UniProt P35372)
Sequence (P35372 whole entry): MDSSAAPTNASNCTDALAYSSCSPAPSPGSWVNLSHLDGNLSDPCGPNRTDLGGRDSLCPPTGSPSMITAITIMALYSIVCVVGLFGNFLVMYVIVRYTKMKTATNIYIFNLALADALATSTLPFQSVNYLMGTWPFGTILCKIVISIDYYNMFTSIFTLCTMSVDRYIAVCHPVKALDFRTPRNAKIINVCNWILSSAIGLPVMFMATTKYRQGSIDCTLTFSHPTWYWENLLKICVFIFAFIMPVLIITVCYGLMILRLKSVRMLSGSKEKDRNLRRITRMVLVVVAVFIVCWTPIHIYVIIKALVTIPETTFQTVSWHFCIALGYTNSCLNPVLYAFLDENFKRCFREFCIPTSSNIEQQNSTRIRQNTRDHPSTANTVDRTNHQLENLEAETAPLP
Reply with the number and its unit after it.

### Prompt # query: Ki of entry Oc1ccc2c(c1)[C@@]13CCCC[C@H]1[C@@H](C2)N(CCCCCCN1CC[C@]24CCCC[C@H]2[C@H]1Cc1ccc(O)cc14)CC3
### Response 52000 pM

### Prompt Try the compound O=C(CCCCCCCCCCC(=O)Oc1ccc2c(c1)[C@@]13CCCC[C@H]1[C@@H](C2)N(CC1CCC1)CC3)Oc1ccc2c(c1)[C@@]13CCCC[C@H]1[C@@H](C2)N(CC1CCC1)CC3
### Response 1800 pM

### Prompt Can you check O=C(Oc1ccc2c(c1)[C@@]13CCCC[C@H]1[C@@H](C2)N(CC1CCC1)CC3)c1ccc(C(=O)Oc2ccc3c(c2)[C@@]24CCCC[C@H]2[C@@H](C3)N(CC2CCC2)CC4)cc1 next?
### Response 4700 pM

### Prompt Lookup O=C(CCCCCCCC(=O)Oc1ccc2c(c1)[C@@]13CCCC[C@H]1[C@@H](C2)N(CC1CCC1)CC3)Oc1ccc2c(c1)[C@@]13CCCC[C@H]1[C@@H](C2)N(CC1CCC1)CC3
### Response 970 pM

Respectfully, I request Ki for each entry included below.
1. O=C(CCCC(=O)Oc1ccc2c(c1)[C@@]13CCCC[C@H]1[C@@H](C2)N(CC1CCC1)CC3)Oc1ccc2c(c1)[C@@]13CCCC[C@H]1[C@@H](C2)N(CC1CCC1)CC3
2. O=C(/C=C/C(=O)Oc1ccc2c(c1)[C@@]13CCCC[C@H]1[C@@H](C2)N(CC1CCC1)CC3)Oc1ccc2c(c1)[C@@]13CCCC[C@H]1[C@@H](C2)N(CC1CCC1)CC3
3. Oc1ccc2c(c1)[C@@]13CCCC[C@H]1[C@@H](C2)N(CCCN1CC[C@]24CCCC[C@H]2[C@H]1Cc1ccc(O)cc14)CC3
4. O=C(CCCCCCC(=O)Oc1ccc2c(c1)[C@@]13CCCC[C@H]1[C@@H](C2)N(CC1CCC1)CC3)Oc1ccc2c(c1)[C@@]13CCCC[C@H]1[C@@H](C2)N(CC1CCC1)CC3
5. O=C(CCCCCCCCC(=O)Oc1ccc2c(c1)[C@@]13CCCC[C@H]1[C@@H](C2)N(CC1CC1)CC3)Oc1ccc2c(c1)[C@@]13CCCC[C@H]1[C@@H](C2)N(CC1CC1)CC3
6. O=C(Oc1ccc2c(c1)[C@@]13CCCC[C@H]1[C@@H](C2)N(CC1CCC1)CC3)[C@H]1C[C@H]1C(=O)Oc1ccc2c(c1)[C@@]13CCCC[C@H]1[C@@H](C2)N(CC1CCC1)CC3
7. O=C(CCC(=O)Oc1ccc2c(c1)[C@@]13CCCC[C@H]1[C@@H](C2)N(CC1CCC1)CC3)Oc1ccc2c(c1)[C@@]13CCCC[C@H]1[C@@H](C2)N(CC1CCC1)CC3

### Response
1. 3300 pM
2. 200 pM
3. 48000 pM
4. 890 pM
5. 930 pM
6. 280 pM
7. 160 pM

### Prompt What value of Ki has been reported for the following compound? O=C(CCC(=O)Oc1ccc2c(c1)[C@@]13CCCC[C@H]1[C@@H](C2)N(CC1CC1)CC3)Oc1ccc2c(c1)[C@@]13CCCC[C@H]1[C@@H](C2)N(CC1CC1)CC3
### Response 140 pM
